Assay endpoint: melting point

// worked examples, melting point included
Compound	melting point
COc1c(Br)csc1C(=O)O	191 to 192 °C
CN=c1c2c(C)c(C)n(-c3ccccc3)c2nc(C)n1C	132 to 133 °C

Data request: Can you look up the measured melting point of CCCCCOc1cc(C(=O)O)ccc1OC for me?
Data returned: 125 °C

Data request: Entry CS(=O)(=O)NCCCCCCCCn1cnc2c(N)nc3ccccc3c21 : reported melting point = ?
Data returned: 153 to 155 °C

###

Attribute: melting point

O=C(CN1CCCCC1)Nc1ccc(NC(=O)Nc2ccc(N(CCCl)CCCl)cc2)cc1 227 to 229 °C
COc1ccc(Cn2c(=O)ccc3cnc(Cl)cc32)cc1Cl 208 to 210 °C

Data request: Any idea what its melting point is? The compound is Cc1ccc(Oc2ccccc2NN)c(O)c1
Data returned: 108 to 110 °C

###

Below: a set of entries, each annotated with reported melting point.

Compound	Assay endpoint	Test result
CCOC(=O)c1cnn(-c2ccc(OCC(C)(C)C(=O)OC)c(C#N)c2)c1	melting point	95 to 96 °C
CN1CCC(NC(=O)C2c3ccccc3NC(=O)c3ccccc32)CC1 (stereo not given)	melting point	230 to 231 °C
CN(C)C(=Nc1ccccc1N1CCOCC1)N1CCOCC1	melting point	126 to 128 °C
Cc1c(-c2ccc(OCc3ccccc3)cc2)n(Cc2ccc(OCCBr)cc2)c2ccc(OCc3ccccc3)cc12	melting point	131 to 134 °C

Attention now shifts to the item below.
Data request: So what does the record say about melting point for O=C1N=C(N2CCCCCC2)SC1=Cc1cccc(-c2ccc(O)c(C34CC5CC(CC(C5)C3)C4)c2)c1 ?
Data returned: 321 to 324 °C

###

List of melting point values.

Data request: So what's the measured melting point for this one? FC(F)(F)Sc1ccc(C=Cc2nc(CCl)cs2)cc1
Data returned: 133 to 134 °C

###

# melting point listing for each entry below

As a guide, the following entries are already answered.
Compound	melting point
CNC(=O)Cn1c(=O)c(=O)[nH]c2cc(C(F)(F)F)c(-n3cccc3)cc21	> 250 °C
CC(c1ccccc1)C(CS)C(=O)NC(Cc1ccc(O)cc1)C(=O)O (centres undefined)	80 °C
CC1(C)Nc2ccccc2-n2cnc(-c3noc(C4CC4)n3)c21	166 to 169 °C
COc1cccc(Oc2cccnc2C(=O)NCCNC(=O)OC(C)(C)C)c1	81 to 82 °C
O=C(O)c1cn(-c2ccc(F)cc2)c2cc(N3CCC(N=Cc4ccc([N+](=O)[O-])cc4)C3)c(F)cc2c1=O (centres undefined)	247 to 248 °C
O=C(O)c1ccc(-c2nccs2)nc1	> 300 °C
CCOC(=O)C(CCCCCN1C(=O)c2ccccc2C1=O)(NC(C)=O)C(=O)OCC	70 to 72 °C
CCCC(Oc1cc(OC)ccc1C(=O)c1ccc(OCc2nc(-c3ccccc3)oc2C)cc1)C(=O)O (centres undefined)	139 to 140 °C

Data request: I have this compound here, COc1ccc2c(Cc3c(Cl)cncc3Cl)nnc(N3CCOCC3)c2c1 , and I need its recorded melting point.
Data returned: 179 to 180 °C

Data request: // returns reported melting point for input COC(=O)c1cccc(COc2cccc(OCc3ccc4ccccc4n3)c2)c1
Data returned: 93 to 94 °C

Data request: Fill in the blank: the reported melting point of CCC#CC(C)(C)NC(=O)C(CC)Oc1cncc(C(=O)O)c1 (centres undefined) is ____.
Data returned: 162 to 164 °C

Data request: Which melting point is listed for COCCn1cc2c(=O)[nH]c(=O)[nH]c2n1 ?
Data returned: 295 to 302 °C

Data request: Please give the measured melting point for this compound: Cc1nc(-n2cnn(Cc3ccc(F)cc3)c2=O)sc1C(=O)NCc1cc[nH]n1
Data returned: 178 to 179 °C

Data request: Using the record for CCOC(=O)C1Cc2[nH]c3ccc(OC)cc3c2C1 (centres undefined) , report its melting point.
Data returned: 82 to 83 °C
